B1: TPR 5TU (parent)
chain: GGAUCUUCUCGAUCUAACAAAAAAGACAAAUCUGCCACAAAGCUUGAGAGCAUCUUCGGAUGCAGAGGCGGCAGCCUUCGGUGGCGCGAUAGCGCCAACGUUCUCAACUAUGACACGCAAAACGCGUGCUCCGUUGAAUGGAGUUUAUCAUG

Variants of: B1
Assay: polymerase ribozyme fitness, log enrichment relative to wild type (log ratio); higher = more active; in vitro selection for triplet polymerase activity
Fewer inactive variants are shown than the library holds.
Quantity Kind: polymerase ribozyme fitness (log ratio)
Answers are plain numbers.

Example entries begin here.
U56A G117A    -0.176
G34U C54U A66C A91U A121U    -4.11
C35U C85A    -1.42
C85U    -0.513
U56A G58A A89C C95G A122C G124C G141C    -1.54

Batch lookup, polymerase ribozyme fitness (log ratio) per entry.
1. C93G A97U
2. A19G G50U A73G C85U
3. C93U G117A A142C
4. C57U A66C

A)
-3.39
-0.781
-4.07
-3.93

The values you see were collected from the RNAGym collection of RNA variant scans (doi:10.1073/pnas.2313332121).
